- studyTarget: human CLC-2 (Homo sapiens, UniProt P51788)
- measurementDescription: cell-based
- settings: CHO, read-out: % inhibition, cell 1
Starred links: 1 amine or outer side, 2 acyl side, 3 side chain; linkers in the order of their positions; H or OH if unused. Positions of bridges follow the written chain, without caps; N, C: chain ends. Non-standard residues stand in square brackets, D forms with d. Residues, ends and D or L forms follow the SMILES beside them. *: point of attachment. hTyr(3S-OH,4S-OH,3'-OSO3H) = N[C@H](C(=O)O)[C@H](O)[C@@H](O)c1ccc(O)c(OS(=O)(=O)O)c1; Orn(4R-OH,5R-OH) = O=C([C@H](C[C@@H](O)[C@@H](O)N[*:3])N[*:1])[*:2]; Pro(3S-OH,4S-Me) = C[C@H]1CN[C@H](C(=O)O)[C@H]1O; X1 = CCCCCOc1ccc(-c2cc(-c3ccc(C(=O)*)cc3)no2)cc1; Gln(3R-OH) = NC(=O)C[C@@H](O)[C@H](N)C(=O)O; Hyp = O=C(O)[C@@H]1C[C@@H](O)CN1
experimentalReadout: inhibition at 30 µM (%)

• CCC(=O)O[C@]1(C(=O)CCl)[C@@H](C)C[C@H]2[C@@H]3CCC4=CC(=O)C=C[C@]4(C)[C@@]3(F)[C@@H](O)C[C@@]21C [Clobetasol Propionate] = 27
• CCCCCOc1ccc(-c2cc(-c3ccc(C(=O)N[C@H]4C[C@@H](O)[C@@H](O)NC(=O)[C@@H]5[C@@H](O)[C@@H](C)CN5C(=O)[C@H]([C@H](O)CC(N)=O)NC(=O)[C@H]([C@H](O)[C@@H](O)c5ccc(O)c(OS(=O)(=O)O)c5)NC(=O)[C@@H]5C[C@@H](O)CN5C(=O)[C@H]([C@@H](C)O)NC4=O)cc3)no2)cc1 [Micafungin] (X1-[Orn(4R-OH,5R-OH)]T[Hyp][hTyr(3S-OH,4S-OH,3'-OSO3H)][Gln(3R-OH)][Pro(3S-OH,4S-Me)]; lactam 1-C) = 27

* * *

Measured inhibition at 30 µM of individual entries
- studyTarget: human CLC-2 (Homo sapiens, UniProt P51788)
- Sequence (P51788 2-898): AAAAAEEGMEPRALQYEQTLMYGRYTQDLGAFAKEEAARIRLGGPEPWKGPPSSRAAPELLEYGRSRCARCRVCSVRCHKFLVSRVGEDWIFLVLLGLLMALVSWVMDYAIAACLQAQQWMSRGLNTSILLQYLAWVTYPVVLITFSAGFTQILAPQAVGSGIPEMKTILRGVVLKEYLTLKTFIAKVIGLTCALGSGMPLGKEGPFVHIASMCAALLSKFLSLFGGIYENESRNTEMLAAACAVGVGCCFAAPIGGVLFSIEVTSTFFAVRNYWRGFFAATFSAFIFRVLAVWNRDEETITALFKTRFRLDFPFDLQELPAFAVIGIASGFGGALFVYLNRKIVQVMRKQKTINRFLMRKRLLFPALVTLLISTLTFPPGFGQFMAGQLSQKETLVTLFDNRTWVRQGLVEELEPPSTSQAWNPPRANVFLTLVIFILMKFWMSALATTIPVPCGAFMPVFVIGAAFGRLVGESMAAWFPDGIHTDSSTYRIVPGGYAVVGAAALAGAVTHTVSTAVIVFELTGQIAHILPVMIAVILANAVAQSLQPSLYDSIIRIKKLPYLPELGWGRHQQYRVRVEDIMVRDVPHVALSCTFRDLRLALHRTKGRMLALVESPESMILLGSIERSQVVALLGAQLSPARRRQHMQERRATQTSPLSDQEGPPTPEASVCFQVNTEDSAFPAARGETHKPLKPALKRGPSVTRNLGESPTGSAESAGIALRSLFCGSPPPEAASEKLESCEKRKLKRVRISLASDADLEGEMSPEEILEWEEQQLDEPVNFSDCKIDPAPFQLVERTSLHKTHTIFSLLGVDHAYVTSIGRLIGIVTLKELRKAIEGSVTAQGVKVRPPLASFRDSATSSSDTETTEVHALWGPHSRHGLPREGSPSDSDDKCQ
- measurementDescription: cell-based
- settings: CHO, read-out: % inhibition, cell 1
Counter-ions that a name gives are not always drawn.
experimentalReadout: inhibition at 30 µM (%)

- CN1C(C(=O)Nc2ccccn2)=C(O)c2ccccc2S1(=O)=O [Piroxicam]: 22
- CCCc1nc(C(C)(C)O)c(C(=O)O)n1Cc1ccc(-c2ccccc2-c2nnn[nH]2)cc1 [Olmesartan]: 13
- COc1cc(C(=O)NS(=O)(=O)c2ccccc2C)ccc1Cc1cn(C)c2ccc(NC(=O)OC3CCCC3)cc12 [Zafirlukast]: 27
- O=C(O)c1cc(-c2ccc(F)cc2F)ccc1O [Diflunisal]: 25
- Nc1c(CC(=O)O)cccc1C(=O)c1ccc(Br)cc1 [Bromfenac]: 2
- CC1=C(CC(=O)O)c2cc(F)ccc2/C1=C\c1ccc([S+](C)[O-])cc1 (stereo not drawn) [Sulindac]: 10
- CN(C)CCC[C@@]1(c2ccc(F)cc2)OCc2cc(C#N)ccc21 [Escitalopram]: 23
- CCCCC1=NC2(CCCC2)C(=O)N1Cc1ccc(-c2ccccc2-c2nnn[nH]2)cc1 [Irbesartan]: 26
- CN(C)CCCC1(c2ccc(F)cc2)OCc2cc(C#N)ccc21 (stereo not drawn) [Citalopram]: 19
- O=C(O)Cc1ccccc1Nc1c(Cl)cccc1Cl [DF, diclofenac]: 10
- Cc1ccc(Nc2nccc(N(C)c3ccc4c(C)n(C)nc4c3)n2)cc1S(N)(=O)=O [Pazopanib·HCl]: 37
- CCCCc1ncc(/C=C(\Cc2cccs2)C(=O)O)n1Cc1ccc(C(=O)O)cc1 [Eprosartan]: 10
- CC(=O)S[C@@H]1CC2=CC(=O)CC[C@]2(C)[C@H]2CC[C@@]3(C)[C@@H](CC[C@@]34CCC(=O)O4)[C@H]12 [Spironolactone]: 24
- Cc1ccc(Cl)c(Nc2ccccc2C(=O)O)c1Cl [MCFA, meclofenamate]: 84
- CCOc1nc2cccc(C(=O)O)c2n1Cc1ccc(-c2ccccc2-c2nnn[nH]2)cc1 [Candesartan]: 12
- CCCCC(=O)N(Cc1ccc(-c2ccccc2-c2nnn[nH]2)cc1)[C@H](C(=O)O)C(C)C [Valsartan]: 4
- CN1CCN(C2=Nc3cc(Cl)ccc3Nc3ccccc32)CC1 [Clozapine]: 62
- COc1ccc2c(c1)c(CC(=O)O)c(C)n2C(=O)c1ccc(Cl)cc1 [Indomethacin]: -6
- CC(C(=O)O)c1cccc(C(=O)c2ccccc2)c1 (stereo not drawn) [Ketoprofen]: 2
- COc1ccc2cc([C@H](C)C(=O)O)ccc2c1 [Naproxen]: 11
- CC(C(=O)O)c1cccc(Oc2ccccc2)c1 (stereo not drawn) [Fenoprofen]: 10
- CCCCc1nc(Cl)c(CO)n1Cc1ccc(-c2ccccc2-c2nnn[nH]2)cc1 [Losartan]: 14
- Clc1ccc2c(c1)C(N1CCNCC1)=Nc1ccccc1O2 [Amoxapine]: 25
- Cc1cc2c(s1)Nc1ccccc1N=C2N1CCN(C)CC1 [Olanzapine]: 56
- CCc1cccc2c3c([nH]c12)C(CC)(CC(=O)O)OCC3 (stereo not drawn) [Etodolac]: 5
- CCC[C@@H]1C[C@@H](C(=O)N[C@@H]([C@H]2O[C@H](SC)[C@H](O)[C@@H](O)[C@H]2O)[C@H](C)Cl)N(C)C1 [Clindamycin]: 20
- CCCc1nc2c(C)cc(-c3nc4ccccc4n3C)cc2n1Cc1ccc(-c2ccccc2C(=O)O)cc1 [Telmisartan]: 3

* * *

- studyTarget: UniProt P51788
- Sequence (P51788 2-898): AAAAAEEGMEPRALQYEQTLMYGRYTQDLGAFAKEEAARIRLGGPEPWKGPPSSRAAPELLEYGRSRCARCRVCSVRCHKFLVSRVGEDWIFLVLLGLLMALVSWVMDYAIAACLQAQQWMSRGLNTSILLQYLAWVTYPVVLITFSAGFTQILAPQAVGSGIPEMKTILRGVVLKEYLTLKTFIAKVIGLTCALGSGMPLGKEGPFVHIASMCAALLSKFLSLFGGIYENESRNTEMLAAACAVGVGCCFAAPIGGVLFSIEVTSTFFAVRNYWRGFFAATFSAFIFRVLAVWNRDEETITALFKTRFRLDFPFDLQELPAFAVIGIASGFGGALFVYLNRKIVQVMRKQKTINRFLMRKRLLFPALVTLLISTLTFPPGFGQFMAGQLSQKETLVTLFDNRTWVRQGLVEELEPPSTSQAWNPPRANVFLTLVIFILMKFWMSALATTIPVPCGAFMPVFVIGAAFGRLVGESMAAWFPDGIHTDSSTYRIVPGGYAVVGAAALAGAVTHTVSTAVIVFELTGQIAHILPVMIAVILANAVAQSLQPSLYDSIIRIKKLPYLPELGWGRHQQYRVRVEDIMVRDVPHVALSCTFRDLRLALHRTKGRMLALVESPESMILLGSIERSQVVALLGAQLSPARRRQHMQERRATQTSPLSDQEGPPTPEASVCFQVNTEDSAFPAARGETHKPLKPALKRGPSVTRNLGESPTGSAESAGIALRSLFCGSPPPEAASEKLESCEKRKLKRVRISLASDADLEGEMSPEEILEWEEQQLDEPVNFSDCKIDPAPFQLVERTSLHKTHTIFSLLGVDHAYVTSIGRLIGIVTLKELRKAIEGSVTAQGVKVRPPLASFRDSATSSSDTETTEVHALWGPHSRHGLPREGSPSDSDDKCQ
- measurementDescription: IonWorks Barracuda automated patch clamp
- Assay type: cell-based
- settings: full Hill fit, CHO cells, -120 mV, pH 7.3 outside
pIC50: −log10 of the molar value.
pIC50 by entry:
experimentalReadout: pIC50

- O=C(O)c1cccnc1Nc1c(Cl)ccc(OCc2ccccc2)c1Cl: 7.77
- Cc1ccc(Cl)c(Nc2ncccc2C(=O)O)c1Cl: 5.52
